MEASURED_ON: cloned human δ receptor (Homo sapiens, UniProt P41143)
Construct: expressed in transfected cells; host or cells: human 293S (HEK-293S) cells, geneticin-selected
Sequence (P41143 whole entry): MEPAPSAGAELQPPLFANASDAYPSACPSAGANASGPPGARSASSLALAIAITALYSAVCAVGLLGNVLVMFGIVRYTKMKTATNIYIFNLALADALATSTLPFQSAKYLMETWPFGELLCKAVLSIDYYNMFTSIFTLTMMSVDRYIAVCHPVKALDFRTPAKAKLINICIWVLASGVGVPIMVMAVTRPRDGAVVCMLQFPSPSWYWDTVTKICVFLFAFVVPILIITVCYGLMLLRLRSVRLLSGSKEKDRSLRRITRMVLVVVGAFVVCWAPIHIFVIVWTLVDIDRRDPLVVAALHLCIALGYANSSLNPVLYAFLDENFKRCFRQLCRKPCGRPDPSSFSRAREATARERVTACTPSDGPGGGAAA
PROTOCOL_DETAILS: GTP[γ]35S binding functional assay, HEK-293S membranes expressing cloned human δ receptor (HDELTA)
Format: biochemical
Property: Emax; scope: individual molecules

>  <STRUCTURE_STRING>
CC(C)N(C(=O)c1ccc(C(=C2CCN(Cc3nccs3)CC2)c2cccc3cccnc23)cc1)C(C)C

>  <Emax>
96 to 102%

$$$$
>  <STRUCTURE_STRING>
CC(C)N(C(=O)c1ccc(C(=C2CCN(Cc3ccncc3)CC2)c2cccc3cccnc23)cc1)C(C)C

>  <Emax>
96 to 102%

$$$$
>  <STRUCTURE_STRING>
CC(C)N(C(=O)c1ccc(C(=C2CCN(Cc3ncc[nH]3)CC2)c2cccc3cccnc23)cc1)C(C)C

>  <Emax>
96 to 102%

$$$$
>  <STRUCTURE_STRING>
CC(C)N(C(=O)c1ccc(C(=C2CCN(Cc3ccoc3)CC2)c2cccc3cccnc23)cc1)C(C)C

>  <Emax>
96 to 102%

$$$$
>  <STRUCTURE_STRING>
CC(C)N(C(=O)c1ccc(C(=C2CCN(Cc3ccccn3)CC2)c2cccc3cccnc23)cc1)C(C)C

>  <Emax>
96 to 102%

$$$$
>  <STRUCTURE_STRING>
CC(C)N(C(=O)c1ccc(C(=C2CCN(Cc3ccc(Br)cc3)CC2)c2cccc3cccnc23)cc1)C(C)C

>  <Emax>
96 to 102%

$$$$

---

MEASURED_ON: delta receptors, rat brain membranes (Rattus norvegicus, UniProt P33533)
Construct: Rat brain membranes are thawed at 37° C; from tissue; host or cells: rat brain membranes
Sequence (P33533 whole entry): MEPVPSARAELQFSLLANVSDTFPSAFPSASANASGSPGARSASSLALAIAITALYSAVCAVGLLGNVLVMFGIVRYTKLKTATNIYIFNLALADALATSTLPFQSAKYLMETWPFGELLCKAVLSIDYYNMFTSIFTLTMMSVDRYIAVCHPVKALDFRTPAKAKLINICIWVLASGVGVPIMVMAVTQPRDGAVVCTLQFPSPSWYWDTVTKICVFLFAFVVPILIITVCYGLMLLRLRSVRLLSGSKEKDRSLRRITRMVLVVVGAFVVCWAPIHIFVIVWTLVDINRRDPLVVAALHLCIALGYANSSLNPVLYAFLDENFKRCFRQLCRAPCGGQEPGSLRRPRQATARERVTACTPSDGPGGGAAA
PROTOCOL_DETAILS: GTP[γ]35S binding functional assay, rat brain membranes
Type: biochemical
EXPERIMENTAL_CONTEXT: GTPγ35S binding, maximal stimulated binding with 3 μM SNC-80
QUANTITY_NAME: Emax

>  <STRUCTURE_STRING>
CC(C)N(C(=O)c1ccc(C(=C2CCN(Cc3ccc(Br)cc3)CC2)c2cccc3cccnc23)cc1)C(C)C

>  <MEASURED_ON>
delta receptors, rat brain membranes (Rattus norvegicus, UniProt P33533)

>  <QUANTITY_NAME>
Emax

>  <RESULT>
97 to 144%

$$$$
>  <STRUCTURE_STRING>
CC(C)N(C(=O)c1ccc(C(=C2CCN(Cc3nccs3)CC2)c2cccc3cccnc23)cc1)C(C)C

>  <MEASURED_ON>
delta receptors, rat brain membranes (Rattus norvegicus, UniProt P33533)

>  <QUANTITY_NAME>
Emax

>  <RESULT>
97 to 144%

$$$$
>  <STRUCTURE_STRING>
CC(C)N(C(=O)c1ccc(C(=C2CCN(Cc3ccco3)CC2)c2cccc3cccnc23)cc1)C(C)C

>  <MEASURED_ON>
delta receptors, rat brain membranes (Rattus norvegicus, UniProt P33533)

>  <QUANTITY_NAME>
Emax

>  <RESULT>
97 to 144%

$$$$

---

MEASURED_ON: delta receptors, mouse brain membranes (Mus musculus, UniProt P32300)
Construct: from tissue; host or cells: mouse brain membranes
Sequence (P32300 whole entry): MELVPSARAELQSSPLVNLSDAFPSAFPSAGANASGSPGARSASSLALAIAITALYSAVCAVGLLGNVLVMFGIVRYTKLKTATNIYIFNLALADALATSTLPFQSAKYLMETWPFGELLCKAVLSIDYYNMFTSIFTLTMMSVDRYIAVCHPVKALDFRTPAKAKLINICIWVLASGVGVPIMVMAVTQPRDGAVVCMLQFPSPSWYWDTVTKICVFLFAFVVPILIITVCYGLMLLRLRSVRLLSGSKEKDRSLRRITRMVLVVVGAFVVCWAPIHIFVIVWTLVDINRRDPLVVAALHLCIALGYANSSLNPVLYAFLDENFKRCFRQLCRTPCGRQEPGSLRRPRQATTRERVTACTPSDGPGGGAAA
PROTOCOL_DETAILS: GTP[γ]35S binding functional assay, mouse brain membranes
Type: biochemical
Description: • A. Human 293S cells expressing cloned human μ, δ, and κ receptors and neomycin resistance were grown in suspension at 37° C. and 5% CO2 in shaker flasks containing calcium-free DMEM10% FBS, 5% BCS, 0.1% Pluronic F-68, and 600 μg/ml geneticin. • B. Mouse and rat brains were weighed and rinsed in ice-cold PBS (containing 2.5 mM EDTA, pH 7.4). […]
Readings of Emax for the listed molecules
QUANTITY_NAME: Emax

>  <STRUCTURE_STRING>
CC(C)N(C(=O)c1ccc(C(=C2CCN(Cc3ccccn3)CC2)c2cccc3cccnc23)cc1)C(C)C

>  <MEASURED_ON>
delta receptors, mouse brain membranes (Mus musculus, UniProt P32300)

>  <RESULT>
100 to 151%

$$$$
>  <STRUCTURE_STRING>
CC(C)N(C(=O)c1ccc(C(=C2CCN(Cc3cccs3)CC2)c2cccc3cccnc23)cc1)C(C)C

>  <MEASURED_ON>
delta receptors, mouse brain membranes (Mus musculus, UniProt P32300)

>  <RESULT>
100 to 151%

$$$$
>  <STRUCTURE_STRING>
COc1ccc(CN2CCC(=C(c3ccc(C(=O)N(C(C)C)C(C)C)cc3)c3cccc4cccnc34)CC2)cc1

>  <MEASURED_ON>
delta receptors, mouse brain membranes (Mus musculus, UniProt P32300)

>  <RESULT>
100 to 151%

$$$$
>  <STRUCTURE_STRING>
CC(C)N(C(=O)c1ccc(C(=C2CCN(Cc3ccc(Br)cc3)CC2)c2cccc3cccnc23)cc1)C(C)C

>  <MEASURED_ON>
delta receptors, mouse brain membranes (Mus musculus, UniProt P32300)

>  <RESULT>
100 to 151%

$$$$
>  <STRUCTURE_STRING>
CC(C)N(C(=O)c1ccc(C(=C2CCN(Cc3nccs3)CC2)c2cccc3cccnc23)cc1)C(C)C

>  <MEASURED_ON>
delta receptors, mouse brain membranes (Mus musculus, UniProt P32300)

>  <RESULT>
100 to 151%

$$$$
>  <STRUCTURE_STRING>
CC(C)N(C(=O)c1ccc(C(=C2CCN(Cc3ccccc3)CC2)c2cccc3cccnc23)cc1)C(C)C

>  <MEASURED_ON>
delta receptors, mouse brain membranes (Mus musculus, UniProt P32300)

>  <RESULT>
100 to 151%

$$$$
>  <STRUCTURE_STRING>
CC(C)N(C(=O)c1ccc(C(=C2CCN(Cc3ncc[nH]3)CC2)c2cccc3cccnc23)cc1)C(C)C

>  <MEASURED_ON>
delta receptors, mouse brain membranes (Mus musculus, UniProt P32300)

>  <RESULT>
100 to 151%

$$$$
>  <STRUCTURE_STRING>
CC(C)N(C(=O)c1ccc(C(=C2CCN(Cc3ccncc3)CC2)c2cccc3cccnc23)cc1)C(C)C

>  <MEASURED_ON>
delta receptors, mouse brain membranes (Mus musculus, UniProt P32300)

>  <RESULT>
100 to 151%

$$$$
>  <STRUCTURE_STRING>
CC(C)N(C(=O)c1ccc(C(=C2CCN(Cc3ccco3)CC2)c2cccc3cccnc23)cc1)C(C)C

>  <MEASURED_ON>
delta receptors, mouse brain membranes (Mus musculus, UniProt P32300)

>  <RESULT>
100 to 151%

$$$$
>  <STRUCTURE_STRING>
CC(C)N(C(=O)c1ccc(C(=C2CCN(Cc3ccoc3)CC2)c2cccc3cccnc23)cc1)C(C)C

>  <MEASURED_ON>
delta receptors, mouse brain membranes (Mus musculus, UniProt P32300)

>  <RESULT>
100 to 151%

$$$$
